The origin of these recorded values is BigSolDB 2.1.

assay.conditions: in DMSO, 298.15 K
assay.endpoint: solubility (mole fraction)
Keep the answer to the number alone.

solubility (mole fraction) in this record for NC(N)=C([N+](=O)[O-])[N+](=O)[O-] : 0.177

* * *

assay.conditions: in MIBK, 303.15 K
assay.endpoint: solubility (mole fraction)
Output spec: single numeric token, no unit.

For NC(N)=C([N+](=O)[O-])[N+](=O)[O-] the molecule record lists solubility (mole fraction) as 0.00358

* * *

assay.conditions: in cyclopentanone, 293.15 K
assay.endpoint: solubility (mole fraction)
The answer should be a number; do not append a unit.

The value of solubility (mole fraction) measured for the compound NC(N)=C([N+](=O)[O-])[N+](=O)[O-] turned out to be 0.00715
